Overview of reported melting point across a group of molecules:
testReadout: melting point

>>> measurement("Cc1cc2c(cc1C1=NNC(=O)CC1)N(C)C(=O)CO2")
"227 to 228 °C"
>>> measurement("CCOC(=O)c1cn2c3c(c(Cl)c(F)cc3c1=O)C(=O)CC2C (single isomer, unassigned; (-))")
"252 to 254 °C"
>>> measurement("CNC(=O)c1nc(-c2ccccc2)c(-c2ccc(=O)n(C(C)C)n2)s1")
"165 to 168 °C"
>>> measurement("COc1ccc(C(=NN)Nc2ccc([N+](=O)[O-])cc2)cc1")
"104 °C"
>>> measurement("CC(C)CCCC(C)NC(=O)Oc1ccc(Oc2ccc(Cl)cc2)cc1 (configuration not stated)")
"46 to 48 °C"
>>> measurement("COc1ccc(C2(c3ccc(OC)cc3)CC2(Cl)Cl)cc1")
"138 °C"
>>> measurement("COc1ccc(-n2ncc(C(=O)Nc3ccc(N4CCC(N5CCOCC5)CC4)c(C#N)c3)c2C)cc1")
"238 °C"
>>> measurement("CC(=NOCCOS(C)(=O)=O)c1ccc(-c2ccc(F)cc2)cc1")
"103 to 106 °C"
>>> measurement("CC(C)CCn1cc(C2CCN(CCOc3ccccc3C(=O)O)CC2)c2ccccc21")
"150 to 151 °C"
>>> measurement("NC(=Nc1ccc2[nH]c3ccccc3c2c1)c1cccs1")
"243 to 244 °C"
>>> measurement("CN1Cc2c(C=O)ncn2-c2cccc(Cl)c2C1=O")
"204 to 205 °C"
>>> measurement("CCOC(=O)c1ccc(-c2ccc(OCCCCCCCCCCCCBr)cc2)cc1")
"88.6 to 90.5 °C"
